src = the METLIN SMRT retention time set (Domingo-Almenara et al. 2019)

# ASSAY_METHOD_TEXT: gradient 5% acetonitrile 3 min, to 50% in 2 min, to 85% in 15 min, held 3 min, 100 µL/min
# COND: column: Zorbax Extend-C18 2.1 x 50 mm; eluents: water / acetonitrile, 0.1% formic acid

COMPOUND	U	RP-LC retention time
Cc1sc2ccn(C)c(=O)c2c1C(=O)N1CCN(c2ccc(F)cc2)CC1	s	746
O=C(NC(c1ccccc1)c1nnc(N2CCOCC2)o1)c1cccc(Cl)c1 (stereo not given)	s	796
COc1ccc(Br)cc1S(=O)(=O)Nc1cc(-c2cn3ccccc3n2)ccc1C	s	701
COc1ccc(Cl)cc1NC(=O)Cc1csc2nc(-c3ccc(C)c(C)c3)cn12	s	985
Cc1ccccc1Nc1c(-c2cccc(Cl)c2)nc2ccccn12	s	787
O=C(Cn1ccn2nc(-c3ccc(F)cc3)c(CO)c2c1=O)Nc1ccc(Cl)cc1	s	880
Cc1ccc(Cl)cc1N(C)C(=O)C1CCCN(c2ncnc3c2nc2n3CCCCC2)C1 (stereo not given)	s	918
CC(C)CCC(=O)N1CCC2(CC1)CC(C)(O)CCO2 (stereo not given)	s	698
COc1ccc(-c2nnc(Cc3nc(-c4ccc(SC)cc4)no3)o2)cc1	s	1040
O=C(Nc1ccc(OCC(=O)N2CCN(c3ccc(Cl)cc3)CC2)nc1)C1CC1	s	808
COc1ccc(NC(=O)c2cccn2Cc2noc(C)n2)cc1Cl	s	859
COC(=O)c1ccc2nc(NC(=O)c3cc(Cl)ccc3Cl)sc2c1	s	965
Cc1ccc(-c2noc(CCn3nc(-c4ccc5c(c4)OCO5)ccc3=O)n2)cc1	s	968
Cc1oc2ccn(Cc3ccc(F)cc3)c(=O)c2c1C(=O)N1CCCCC1	s	834
COCCNC(=O)N1CCC(C(=O)NCC(F)(F)F)CC1	s	571
COc1ccc(OC)c2sc(N(Cc3ccco3)C(=O)Cc3cccs3)nc12	s	1050
C=CCNC(=O)c1nnc2n(c1=O)CCN2c1ccc(F)cc1	s	622
O=C(Nc1ccc(F)cc1)c1cnc(-c2ccc(F)cc2)nc1-c1ccncc1	s	898
COCCn1cc2c3c(cccc31)CN(C(=O)Nc1ccc(C)c(C)c1)CC2	s	1020
O=C(Cn1cnc2nc(N3CCCC(C(=O)NC4CC4)C3)sc2c1=O)Nc1ccccc1Cl (stereo not given)	s	686

====

# ASSAY_METHOD_TEXT: gradient 5% acetonitrile 3 min, to 50% in 2 min, to 85% in 15 min, held 3 min, 100 µL/min
# COND: column: Zorbax Extend-C18 2.1 x 50 mm; eluents: water / acetonitrile, 0.1% formic acid
METRIC: RP-LC retention time (s)

COMPOUND	MEASUREMENT
CSc1cccc(NC(=O)c2cnc(-c3ccc(F)cc3)nc2-c2ccncc2)c1	973
Cc1nc(-c2ccccn2)cc2nn(CC(=O)N3CCOCC3)c(=O)n12	754
Cn1c(=O)c2cc(C(=O)NCCc3ccncc3)nn2c2ccccc21	584
CCOCCCNC(=O)N1CC(Oc2ccc(-c3nc(-c4ccccc4)no3)cc2)C1	985
CCC(=O)N1CCCC1c1nc(CCOCC2CCCC2)no1 (stereo unspecified)	837
Oc1ccc2c(ccc3[nH]cnc32)c1	622

====

# ASSAY_METHOD_TEXT: gradient 5% acetonitrile 3 min, to 50% in 2 min, to 85% in 15 min, held 3 min, 100 µL/min
# COND: column: Zorbax Extend-C18 2.1 x 50 mm; eluents: water / acetonitrile, 0.1% formic acid
Note: every record was labeled by where its RP-LC retention time sits among lower band = under 600 s, central band = from 600 s up to 800 s, upper band = 800 s and over

MOLECULE	CLASS_NAME
CC(C)C(=O)Nc1ccc(-n2cnc(C(=O)NCc3ccc(F)cc3)c2)nc1	central band
Cc1cccn2c(Nc3ccc4c(c3)OCCO4)c(-c3ccc(N4CCOCC4)cc3)nc12	central band
Cc1ccc(F)cc1S(=O)(=O)N1CCC(C2CCNC2)CC1 (stereo not drawn)	central band
CCN1CCN(C(=O)CC2CCN(S(=O)(=O)c3ccc(Cl)s3)CC2)CC1	central band
CCN(c1ccccc1)S(=O)(=O)c1ccc(C(=O)Nc2cc(C)no2)cc1	upper band
Fc1ccc(-c2noc(CCc3nnc4ccc(N5CCN(Cc6ccccc6)CC5)nn34)n2)cc1	central band
O=C(NC1CC1)c1ccc(N2CCC(NCc3ccc(F)cc3)C2)nc1 (stereo not drawn)	lower band
Cc1cc(C)c(NC(=O)CN2C(=O)CC(c3cccs3)=Nc3ccccc32)c(C)c1	upper band
CCCN1CCN(c2ncc3c(n2)CCN(Cc2ccccc2OCC)C3)CC1	lower band
O=C(COc1ccc(F)cc1F)Nc1cccc(-c2ccc(N3CCOCC3)nn2)c1	central band
CC(C)(C)c1noc(-c2ccc(-n3cnc(C(=O)N4CCSCC4)c3)nc2)n1	upper band
CCOC(=O)CNC(=O)N1CCc2c(c(C(=O)N3CCCCC3)nn2C)C1	central band
CC(C)CNC(=O)c1ccc(-n2cc(CNC(=O)C3CC3)cn2)cc1	central band
O=C(N1[C@H]2CC[C@@H]1c1cnc(-c3ccc(F)cc3)nc1C2)C1(c2ccccc2)CC1	upper band
Cc1cc(OCC(O)Cn2c(C3CC(=O)N(C(C)(C)C)C3)nc3ccccc32)cc(C)c1Cl (stereo not drawn)	upper band
CCOc1ccc(C2Cn3nnc(-c4nc(-c5cccc(Cl)c5)no4)c3CO2)cc1 (stereo not drawn)	upper band
COc1cc(C(=O)Nc2c(-c3ccc(F)cc3)nc3ccccn23)cc(OC)c1OC	central band
Cc1ccc(-c2ncccc2CNS(=O)(=O)c2ccc(C)cc2)cc1	central band
COC(=O)C1C(=O)C2=C(CC1C)NC(C)=C(C(=O)OC(C)C)C2c1cccc(F)c1 (stereo not drawn)	upper band
O=C(Cn1cccn1)N1CCN(c2ncccn2)CC1	lower band
Cn1cc(-c2ccncc2)cc1C(=O)NCc1ccc(F)cc1F	central band
O=C(CS(=O)Cc1ccco1)NC/C=C\COc1cc(CN2CCCCC2)ccn1 (stereo not drawn)	central band
Cc1ccc(N2CCOCC2)c2c1C(=O)c1ccccc1C2=O	upper band
Cc1ccc(C)c(NC(=O)Cn2cnc3nc(N4CCC(C(=O)NC5CC5)CC4)sc3c2=O)c1	central band
CCNc1nc(C)cc(N2CCN(C(=O)Nc3cc(OC)cc(OC)c3)CC2)n1	central band
Cc1ccc2c(c1)N(S(C)(=O)=O)CCC(C(=O)Nc1cccc(C)c1C)O2 (stereo not drawn)	upper band
Cc1[nH]c(=O)[nH]c(=O)c1CCC(=O)Nc1ccccc1C(N)=O	lower band
CCN(CC)c1nc(C(=O)N2CCC(N3CCCCC3)CC2)nc2nc(C)cc(C)c12	lower band
O=C1CN(S(=O)(=O)c2cccc(C(F)(F)F)c2)CC2(CCCCC2)N1C1CCCC1	upper band
